Entry source: the supplement of paper PMC12338614

B1: library; numbered along this chain (parent)
chain: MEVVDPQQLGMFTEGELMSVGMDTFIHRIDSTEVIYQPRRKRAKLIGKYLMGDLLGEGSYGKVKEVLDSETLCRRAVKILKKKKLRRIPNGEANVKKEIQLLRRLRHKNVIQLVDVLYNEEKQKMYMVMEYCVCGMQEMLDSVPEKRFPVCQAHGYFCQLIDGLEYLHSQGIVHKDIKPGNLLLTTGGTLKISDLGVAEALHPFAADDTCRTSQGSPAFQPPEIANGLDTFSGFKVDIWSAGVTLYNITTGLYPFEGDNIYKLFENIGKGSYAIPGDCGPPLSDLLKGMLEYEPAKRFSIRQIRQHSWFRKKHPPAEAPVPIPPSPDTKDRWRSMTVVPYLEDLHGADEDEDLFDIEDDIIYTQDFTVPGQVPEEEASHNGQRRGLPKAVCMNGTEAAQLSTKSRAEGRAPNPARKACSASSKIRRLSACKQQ

Variants of: B1
Experiment: STK11 functional score (HeLa growth suppression), rescaled enrichment; synonymous median = 1, nonsense median = 0 (normalised score)
Conditions: with HeLa; variant type: missense
REPORTED METRIC: STK11 functional score
Give bare numbers.

L286F | 0.971
E351D | 0.951
K122V | 0.86
C278V | 0.943
K329D | 1.56

Each variant below has a recorded value; state its STK11 functional score.
1. Y362G
2. N90W
3. H154I
4. N247G
5. L167A
6. A43M

OUT:
1: 1.15; 2: 0.707; 3: 0.492; 4: 0.808; 5: 0.629; 6: 1.57

Each variant below has a recorded value; state its STK11 functional score.
1. S419G
2. T395S
3. P321Y
4. S271L
5. R301Y
6. E374I
7. V128I

OUT:
1. 1.58
2. 0.942
3. 0.641
4. 1.39
5. 1.6
6. 1.46
7. 1.63

Each variant below has a recorded value; state its STK11 functional score.
1. L245E
2. T249D

OUT:
-0.0467
-0.107

Each variant below has a recorded value; state its STK11 functional score.
1. L67R
2. P294W

OUT:
1. 0.719
2. 1.36
